Reported viability values are given for each entry in this list.
experiment: reversal of MRP1-mediated doxorubicin resistance, pilot screen, H69AR cells, doxorubicin co-treatment (AID 601); conditions: H69AR cells, CellTiter-Glo, 72 h; compound alone cytotoxicity; at 10 µM
Only the number, expressed in %, is required.

[[record]]
chemicalsmiles = "CCCCNC(=O)c1cc(-c2ccc(F)cc2)on1"
recordedmeasurement = 81.2


Item `COc1cc(C(=O)NCC(=O)OCC(=O)c2ccc[nH]2)cc(OC)c1OC` : provide viability
91.5

Fill in reported viability for this entry: `CCc1oc2ccccc2c1C(=O)c1cc(Br)c(O)c(Br)c1`
79

Using the record for `CC1(C)CC(=O)C(C=NCc2ccc3c(c2)OCO3)=C(O)C1` , state its measured viability.
91.3

// fetch viability given entry `Nc1nc(NC(=O)c2cccs2)nn1-c1ccccc1`
94

Tell me its viability given `O=C1c2ccccc2C(=O)N1CCC(=O)N1CCc2ccccc21` as the entry.
87.3

Hello, please tell me recorded viability for this one: `COc1ccc2c3c(c(=O)oc2c1OCC(N)=O)CCCC3`
97.6

Please report the measured viability for `CCCCn1c(SCc2ccc(Cl)cc2)nc2c1c(=O)[nH]c(=O)n2C`
76.7

Consider the compound `O=C(O)CCc1ccc(-c2ccccc2)n1CC(=O)O` . State its measured viability.
93
